This section presents molecules with their documented inhibition values.
# SYSTEM TESTED: Glucose transporter (Leishmania mexicana) (UniProt O61059)
# TEST: ST_JUDE_LEISH: Cytotoxicity at 2uM final concentration against transgenic Leishmania Mexicana promastigotes LmGT2 that are glucose transport deficient and complemented with the L. Mexicana glucose transporter 2. Activity is measured by DNA content using SYBR green in vitro
# Format: functional
Respond with the figure and its unit, in that order.

* CN1CCN(CCCN(Cc2ccc(-c3cccc(CNC4CCCC4)c3)cc2)C(=O)Nc2ccccc2)CC1 | 5.53%

Prompt line: Suppose we examine the molecule Cc1cc(C(=O)CN2C(=O)NC(C)(c3cccc4ccccc34)C2=O)c(C)n1Cc1ccco1 (stereo unspecified) ; what inhibition value has been reported?
Response line: 4.09%

Prompt line: I have this molecule here, O=C(Cc1cccc(O)c1)NCC(Cc1ccc(O)cc1)c1ccccc1 (stereo unspecified) , and I need its recorded inhibition.
Response line: 0.22%

Prompt line: I'd like to know its inhibition. The molecule in question is CC(C)NCc1ccc(-c2ccc(CN3CCCC(c4ccccc4)C3)cc2)c(C(=O)NCC2CCCCC2)c1 (stereo unspecified)
Response line: -6.06%

Prompt line: Give the measured inhibition of CC(C)c1ccc(C2CCN(CCCCNC(=O)c3ccc(NC(=O)c4ccc(C(F)(F)F)cc4)cc3)CC2)c(O)c1 .
Response line: 1.92%

Prompt line: For the molecule Cc1cc(N(C)CCCN(C)C)nc(Nc2ccc(Cl)cc2)n1 , what inhibition is on record?
Response line: -0.32%

###

# SYSTEM TESTED: Glucose transporter (Leishmania mexicana) (UniProt O61059)
# TEST: ST_JUDE_LEISH: Cytotoxicity at 2uM final concentration against transgenic Leishmania Mexicana promastigotes LmGT2 that are glucose transport deficient and complemented with the L. Mexicana glucose transporter 2. Activity is measured by DNA content using SYBR green in vitro
# Format: functional
Listing of recorded inhibition by entry.
Write down the numeric answer in % and omit the unit.

Some solved entries appear below for comparison.
* O=C(NC1CCN(c2ccnc3cc(Cl)ccc23)C1)c1ccc(F)cc1F (stereo unspecified) | 2.89
* Cc1ccc2[nH]cc(/C=C/C(=O)NC3CCC(CCN4CCc5ccc(C#N)cc5CC4)CC3)c2c1 (stereo unspecified) | -2.82

Let us move to another entry and its inhibition.
Prompt line: Tell me the measured inhibition of Cn1c(NC(=O)C2CCCN(C(=O)c3ccc(O)c(-c4ccc(Cl)c(Cl)c4)c3)C2)nc2ccccc21 (stereo unspecified) , please.
Response line: -7.08

###

# SYSTEM TESTED: Hexose transporter 1 (Plasmodium falciparum)
# TEST: ST_JUDE_LEISH: Cytotoxicity at 2uM final concentration against transgenic Leishmania Mexicana promastigotes LmPfHT that are glucose transport deficient and complemented with the Plasmodium falciparum hexose transporter. Activity is measured by DNA content using SYBR green in vitro
# Type: functional
Recorded inhibition values for a group of molecules are listed next.
Give just the number in %; leave the unit off.

Prompt line: Look up inhibition for this molecule: O=C(Nc1ccccc1)N(Cc1ccccc1-c1cccc(CNCCc2ccccc2)c1)C1CCN(Cc2ccccc2)CC1
Response line: 0.26

###

inhibition values for the compounds below.
# SYSTEM TESTED: Glucose transporter (Leishmania mexicana) (UniProt O61059)
# TEST: ST_JUDE_LEISH: Cytotoxicity at 2uM final concentration against transgenic Leishmania Mexicana promastigotes LmGT2 that are glucose transport deficient and complemented with the L. Mexicana glucose transporter 2. Activity is measured by DNA content using SYBR green in vitro
# Assay type: functional
Field: numeric (%). Do not append units.

// worked examples, inhibition included
• O=c1ccc(CNc2nc(NCCc3ccccc3)nc3cc(Cl)ccc23)c[nH]1 = 1.95
• Oc1ccc(CN2CCC(NCc3cccc4ccccc34)CC2)cc1 = 9.93
• O=C(NC1CC1)c1ccc(Cn2c(SCc3cccc([N+](=O)[O-])c3)nc3ccccc3c2=O)cc1 = 0.2

Prompt line: Sample CC(=O)Nc1cccc(C(=O)Nc2ccc(-c3cccc(-c4nc5cccc(C)c5[nH]4)c3)cc2)c1 — what was its inhibition?
Response line: 0.36

Prompt line: Give its inhibition value. Item: CCCCCC(C)C(C)c1cc(O)c2c(c1)OC(C)(C)C=C2c1cc[n+]([O-])cc1 (stereo not drawn)
Response line: 9.99

Prompt line: Which inhibition reading was recorded for the compound NS(=O)(=O)c1cccc(Br)c1 ?
Response line: 2.22

Prompt line: Consider the compound shown here: Cc1cccc2nc(-c3cccc(-c4ccc(NC(=O)C(C)CN5CCOCC5)cc4)c3)[nH]c12 (stereo not drawn) What is its recorded inhibition?
Response line: 4.9

Prompt line: Which inhibition value belongs to O=C(/C=C/c1ccc(Cl)c(Cl)c1)NCCCCCCN1CCN(C(=O)Nc2cc(Cl)nc(Cl)c2)CC1 ?
Response line: 2.49

Prompt line: I am curious: what inhibition value has been reported for Nc1nc(N)c2c(ccc3c2ccn3Cc2cccc3ccccc23)n1 ?
Response line: 88.4

Reference source for all entries: ChEMBL document CHEMBL3433997
